Origin of values: patent US20200361871A1

Consider the following compounds; for each one, report its % Potentiation @ 3.33 μM Avg.
# tested_system: human TMEM16A (TMEM16Aabc variant) (Homo sapiens, UniProt Q5XXA6, DEL476-501, form not given)
# Sequence (Q5XXA6 with tags, fused parts or gaps DEL476-501): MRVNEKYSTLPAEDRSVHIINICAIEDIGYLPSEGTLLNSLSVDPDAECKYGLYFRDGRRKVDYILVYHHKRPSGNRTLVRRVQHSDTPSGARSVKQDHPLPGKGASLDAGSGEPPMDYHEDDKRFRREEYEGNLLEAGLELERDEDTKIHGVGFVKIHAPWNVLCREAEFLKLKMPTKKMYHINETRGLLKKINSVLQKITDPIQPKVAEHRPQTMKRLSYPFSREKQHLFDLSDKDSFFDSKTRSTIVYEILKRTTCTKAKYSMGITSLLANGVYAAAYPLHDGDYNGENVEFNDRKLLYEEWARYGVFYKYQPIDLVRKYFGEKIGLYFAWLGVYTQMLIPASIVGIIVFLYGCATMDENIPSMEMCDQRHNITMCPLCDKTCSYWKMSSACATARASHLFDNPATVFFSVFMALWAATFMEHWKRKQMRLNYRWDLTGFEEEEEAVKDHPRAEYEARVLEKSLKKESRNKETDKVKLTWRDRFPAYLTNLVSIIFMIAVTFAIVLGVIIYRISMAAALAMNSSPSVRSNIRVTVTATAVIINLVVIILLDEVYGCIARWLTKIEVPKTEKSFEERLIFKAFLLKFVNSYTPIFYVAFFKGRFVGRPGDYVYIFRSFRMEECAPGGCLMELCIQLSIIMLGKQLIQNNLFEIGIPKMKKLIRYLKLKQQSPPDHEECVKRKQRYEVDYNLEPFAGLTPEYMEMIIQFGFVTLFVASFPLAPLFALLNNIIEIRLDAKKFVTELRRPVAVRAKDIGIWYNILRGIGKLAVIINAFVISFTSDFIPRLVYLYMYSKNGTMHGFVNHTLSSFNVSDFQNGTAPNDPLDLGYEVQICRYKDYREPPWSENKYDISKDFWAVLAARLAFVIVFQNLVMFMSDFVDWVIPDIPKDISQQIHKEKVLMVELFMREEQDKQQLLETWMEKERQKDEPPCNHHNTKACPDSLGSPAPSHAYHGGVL
# test_description: Automated whole-cell patch clamp (Qpatch) TMEM16A potentiator assay in FRT cells stably expressing human TMEM16A
# Assay type: cell-based
# run_conditions: 3.33 μM solution of test compound; percentage increase of baseline TMEM16A current
Answers are plain numbers, in %.

>>> numeric_result("CC(C)(CF)NC(=O)c1cc(NC(=O)Cc2ccccc2Cl)ccn1 [Example 30.10]")
265
>>> numeric_result("CC(C)(C)NC(=O)c1cc(NC(=O)Nc2c[nH]c3ccccc23)ccn1 [Example 64.6]")
0
>>> numeric_result("CC(C)(C#N)NC(=O)c1cc(NC(=O)CC2CCCCC2)ccn1 [Example 83.1]")
159
>>> numeric_result("CC(C)(C)NC(=O)c1cc(NC(=O)Cc2cccc(F)c2F)ccn1 [Example 23.8]")
122
>>> numeric_result("CC(C)(C)c1ccc(O)c(CC(=O)Nc2ccnc(C(=O)NC3(C#N)CCOCC3)c2)c1 [Example 25.1]")
393
>>> numeric_result("CC(C)(C)NC(=O)c1cc(NC(=O)C2CCc3ccc(O)cc32)ccn1 (stereo not drawn) [Example 3.9b]")
144

Provide each entry's % Potentiation @ 3.33 μM Avg from the list below.
1. COCC(C)(C)NC(=O)c1cccc(NC(=O)Cc2ccccc2O)c1 [Example 1.9]
2. CC(C)(C#N)NC(=O)c1cc(NC(=O)Cc2ccccc2Cl)ccn1 [Example 30.3a]
3. O=C(Cc1cc(Cl)ccc1O)Nc1ccnc(C(=O)NC2CCOCC2)c1 [Example 7.11]
4. COc1cccc(CC(=O)Nc2cccc(C(=O)NC(C)(C)C)c2)c1O [Example 2.8]

Outgoing:
1. 79
2. 221
3. 167
4. 74

Answer for every listed entry: what is its % Potentiation @ 3.33 μM Avg? The entries follow.
1. O=C(Cc1cc(Cl)ccc1O)Nc1ccnc(C(=O)Nc2ncc[nH]2)c1 [Example 32.9]
2. CC(C)(CCO)NC(=O)c1cc(NC(=O)Cc2cc(Cl)ccc2O)ccn1 [Example 35.14]

Outgoing:
1: 31; 2: 172

###

# tested_system: human TMEM16A (TMEM16Aabc variant) (Homo sapiens, UniProt Q5XXA6, DEL476-501, form not given)
# test_description: Automated whole-cell patch clamp (Qpatch) TMEM16A potentiator assay in FRT cells stably expressing human TMEM16A
# run_conditions: calculated EC50, Qpatch TMEM16A current at +70 mV
Consider the following compounds; for each one, report its pEC50.
Give bare numbers, as −log10 of the molar value.

>>> numeric_result("CC1(NC(=O)c2cc(NC(=O)Cc3cc(F)ccc3O)ccn2)CCC1")
7.00
>>> numeric_result("CC(C)(C)NC(=O)c1cc(NC(=O)Cc2c(O)c(Br)cc(F)c2Br)ccn1")
6.55
>>> numeric_result("CC(C)(C)NC(=O)c1cc(NC(=O)Cc2ccccc2F)ccn1")
6.12
>>> numeric_result("O=C(Cc1cc(Cl)ccc1O)Nc1ccnc(C(=O)NCc2ccccc2)c1")
6.82
>>> numeric_result("O=C(Cc1cc(Cl)ccc1O)Nc1ccnc(C(=O)N[C@H]2CCC[C@H]2O)c1")
6.33
>>> numeric_result("CC(C)(C)NC(=O)c1cc(NC(=O)Cc2cc(Cl)ccc2F)ccn1")
6.06
>>> numeric_result("CC(C)(C)NC(=O)c1cccc(NC(=O)Cc2c[nH]c3ccccc23)c1")
6.15
>>> numeric_result("O=C(Cc1cc(Cl)ccc1O)Nc1ccnc(C(=O)NCc2ccccn2)c1")
6.54

Per the record, `O=C(Cc1cc(Cl)ccc1O)Nc1ccnc(C(=O)NC23CC4CC(CC(C4)C2)C3)c1` has pEC50 of 6.62
